Source of measurements: patent US20170275270A1

target: catalytic domain of human Bub1 (amino acids 704-1085) (Homo sapiens); construct: catalytic domain of human Bub1 (amino acids 704-1085); His6 (N); made in house; host or cells: Hi5 insect cells; test: Bub1 kinase assay (TR-FRET); format: biochemical; conditions: 10 μM ATP, read-out: Biological Assay 1: Bub1 kinase assay median IC50
pIC50: −log10 of the molar value.
Measured pIC50 values are reported for all entries that follow.
Assay Readout: pIC50

INSERT INTO measurements (record_smiles, reported_measurement) VALUES
  ('CCOc1cc(F)c(Cn2nc(-c3ncc(CN)c(Nc4ccncc4)n3)c3ccccc32)c(F)c1', 7.85),
  ('Cc1cc(Nc2cc(C(C)C)nc(-c3nn(Cc4c(F)cc(OCCO)cc4F)c4ccccc34)n2)c(C)cn1', 5.49),
  ('CCOc1cc(F)c(Cn2nc(-c3nc(CO)cc(Nc4ccncc4C)n3)c3ccccc32)c(F)c1', 8.04),
  ('CCOc1cc(F)c(Cn2nc(-c3nc(CN4CCOCC4)cc(Nc4ccncc4F)n3)c3ccccc32)c(F)c1', 7.96),
  ('CCOc1cc(F)c(Cn2nc(-c3nc4c(c(Nc5ccnc(C)n5)n3)CC(C)(C)CC4)c3ccccc32)c(F)c1', 7.01),
  ('CCOc1cc(F)c(Cn2nc(-c3nc4c(c(Nc5cc(C)ncn5)n3)CCC4)c3ccccc32)c(F)c1', 7.60),
  ('CCOc1cc(F)c(Cn2nc(-c3nc4c(c(Nc5ccncn5)n3)CCC4)c3ccccc32)c(F)c1', 7.43);

----------
target: catalytic domain of human Bub1 (amino acids 704-1085) (Homo sapiens); construct: catalytic domain of human Bub1 (amino acids 704-1085); His6 (N); made in house; host or cells: Hi5 insect cells; assay: Bub1 kinase assay (TR-FRET); type: biochemical; details: Biological Assay 1: Bub1 kinase assay median IC50, 10 μM ATP
Label key: fulfilled means IC50 under 10 nM; not fulfilled means IC50 of 10 nM or more.

INSERT INTO results (record_smiles, class_assignment) VALUES
  ('COCCOc1cc(F)c(Cn2nc(-c3ncc(C4CCN(CC5CC5)CC4)c(Nc4ccnc(C)n4)n3)c3ccccc32)c(F)c1', 'not fulfilled'),
  ('CCOc1cc(F)c(Cn2nc(-c3nc(Nc4ccnc(C)n4)cc(C(F)(F)F)n3)c3ccccc32)c(F)c1', 'not fulfilled'),
  ('Nc1cc(Nc2nc(-c3nn(Cc4c(F)cc(OCCO)cc4F)c4ccccc34)nc3c2CCC3)ccn1', 'fulfilled'),
  ('Cc1nccc(Nc2nc(-c3nn(Cc4c(F)cc(OCCO)cc4F)c4ccccc34)ncc2C2CCN(CC(F)(F)F)CC2)n1', 'not fulfilled'),
  ('CCOc1cc(F)c(Cn2nc(-c3nc4c(c(Nc5ccncc5)n3)COC4)c3ccccc32)c(F)c1', 'fulfilled');

----------
target: Bub1 (Homo sapiens, UniProt O43683); experiment: Formation-Assay: phosphorylation status of histone 2A by inhibition of kinase activity of Bub1; type: cell-based; conditions: Biological Assay 4.1: H2A Formation IC50, co-treatment with Nocodazole 1 μg/ml, 16 h
Sequence (O43683 whole entry): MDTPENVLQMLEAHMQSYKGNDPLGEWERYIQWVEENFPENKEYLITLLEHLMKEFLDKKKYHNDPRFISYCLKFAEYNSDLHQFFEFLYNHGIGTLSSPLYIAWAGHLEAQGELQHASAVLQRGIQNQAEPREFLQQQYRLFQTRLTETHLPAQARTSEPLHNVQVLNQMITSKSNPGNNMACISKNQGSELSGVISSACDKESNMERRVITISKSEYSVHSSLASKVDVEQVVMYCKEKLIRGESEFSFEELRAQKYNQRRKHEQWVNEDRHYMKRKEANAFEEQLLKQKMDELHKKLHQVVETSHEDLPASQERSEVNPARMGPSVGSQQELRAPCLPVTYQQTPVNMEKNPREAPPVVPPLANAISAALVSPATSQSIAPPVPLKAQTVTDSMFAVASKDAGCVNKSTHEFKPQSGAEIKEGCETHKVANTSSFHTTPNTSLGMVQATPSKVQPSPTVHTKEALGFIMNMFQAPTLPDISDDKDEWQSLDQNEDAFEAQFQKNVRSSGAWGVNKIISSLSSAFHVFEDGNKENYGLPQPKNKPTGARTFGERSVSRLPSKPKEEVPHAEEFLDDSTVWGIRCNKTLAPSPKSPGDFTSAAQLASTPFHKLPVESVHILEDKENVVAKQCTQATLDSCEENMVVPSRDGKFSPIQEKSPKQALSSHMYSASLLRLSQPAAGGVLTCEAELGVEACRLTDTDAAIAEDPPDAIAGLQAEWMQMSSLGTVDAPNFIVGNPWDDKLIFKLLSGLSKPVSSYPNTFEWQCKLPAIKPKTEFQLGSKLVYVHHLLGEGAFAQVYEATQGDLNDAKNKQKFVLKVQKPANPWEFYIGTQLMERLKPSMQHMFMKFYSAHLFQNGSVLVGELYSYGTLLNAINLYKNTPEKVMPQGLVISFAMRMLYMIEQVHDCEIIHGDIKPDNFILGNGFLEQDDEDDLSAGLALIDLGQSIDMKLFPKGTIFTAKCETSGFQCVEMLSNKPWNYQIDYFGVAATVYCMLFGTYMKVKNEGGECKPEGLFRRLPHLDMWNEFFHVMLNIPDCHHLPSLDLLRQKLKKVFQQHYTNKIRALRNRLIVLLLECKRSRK
Assay Readout: IC50 (nM)

INSERT INTO measurements (record_smiles, assay_readout, reported_measurement) VALUES
  ('Cc1cc(Nc2nc(-c3nn(Cc4c(F)cc(OCCO)cc4F)c4ccccc34)nc3c2CCC3)c(C)cn1', 'IC50', 1.8),
  ('CCOc1cc(F)c(Cn2nc(-c3nc4c(c(Nc5cc(C)ncc5C)n3)CC(C)(C)C4)c3ccccc32)c(F)c1', 'IC50', 120),
  ('CCOc1cc(F)c(Cn2nc(-c3nc4c(c(Nc5ccnc(C)n5)n3)CCC4)c3ccccc32)c(F)c1', 'IC50', 14),
  ('CCOc1cc(F)c(Cn2nc(-c3ncc(CCCN4CCC(F)(F)CC4)c(Nc4ccncc4)n3)c3ccccc32)c(F)c1', 'IC50', 8700),
  ('Cc1nccc(Nc2nc(-c3nn(Cc4c(F)cc(OCCO)cc4F)c4ccccc34)ncc2C2CCN(CC(F)F)CC2)n1', 'IC50', 6),
  ('Cc1nccc(Nc2nc(-c3nn(Cc4c(F)cc(O)cc4F)c4ccccc34)nc3c2CCC3)n1', 'IC50', 2300),
  ('CCOc1cc(F)c(Cn2nc(-c3ncc(CCCO)c(Nc4ccncc4)n3)c3ccccc32)c(F)c1', 'IC50', 8.2),
  ('Cc1cc(Nc2nc(-c3nn(Cc4c(F)cc(OCCO)cc4F)c4ccccc34)nc3c2CCC3)c(F)cn1', 'IC50', 84),
  ('OCCOc1cc(F)c(Cn2nc(-c3ncc(C4CCN(CCC(F)(F)F)CC4)c(Nc4ccncc4Cl)n3)c3ccccc32)c(F)c1', 'IC50', 19),
  ('CCOc1cc(F)c(Cn2nc(-c3ncc(CCS(C)(=O)=O)c(Nc4ccncc4)n3)c3ccccc32)c(F)c1', 'IC50', 2300),
  ('CCOc1cc(F)c(Cn2nc(-c3nc4c(c(Nc5ccncc5C)n3)CCCC4)c3ccccc32)c(F)c1', 'IC50', 49),
  ('CCOc1cc(F)c(Cn2nc(-c3ncc(CCNCC(F)(F)F)c(Nc4ccncc4Cl)n3)c3ccccc32)c(F)c1', 'IC50', 2.6),
  ('CCOc1cc(F)c(Cn2nc(-c3nc4c(c(Nc5ccncc5)n3)CNC4)c3ccccc32)c(F)c1', 'IC50', 11),
  ('CCOc1cc(F)c(Cn2nc(-c3nc(CN4CCOCC4)cc(Nc4ccncc4F)n3)c3ccccc32)c(F)c1', 'IC50', 63),
  ('CCOc1cc(F)c(Cn2nc(-c3nc(Nc4ccnc(C)n4)cc(C(F)(F)F)n3)c3ccccc32)c(F)c1', 'IC50', 31),
  ('CCOc1cc(F)c(Cn2nc(-c3nc(Nc4cc(C)ncc4C)cc(C(F)(F)F)n3)c3ccccc32)c(F)c1', 'IC50', 30),
  ('CCOc1cc(F)c(Cn2nc(-c3ncc(CC4CNC4)c(Nc4ccncc4)n3)c3ccccc32)c(F)c1', 'IC50', 440),
  ('CCOc1cc(F)c(Cn2nc(-c3nc(Nc4ccncc4)cc(C(C)C)n3)c3ccccc32)c(F)c1', 'IC50', 34),
  ('CCOc1cc(F)c(Cn2nc(-c3nc4c(c(Nc5ccncc5OC)n3)CCC4)c3ccccc32)c(F)c1', 'IC50', 13),
  ('CCOc1cc(F)c(Cn2nc(-c3ncc(CC[S@](C)(=N)=O)c(Nc4ccncc4)n3)c3ccccc32)c(F)c1', 'IC50', 570),
  ('CCOc1cc(F)c(Cn2nc(-c3nc(COC)cc(Nc4ccnc(NC(C)=O)c4)n3)c3ccccc32)c(F)c1', 'IC50', 2.9),
  ('CCOc1cc(F)c(Cn2nc(-c3nc(Nc4ccncc4OC)cc(C(F)(F)F)n3)c3ccccc32)c(F)c1', 'IC50', 13),
  ('CCOc1cc(F)c(Cn2nc(-c3nc4c(c(Nc5ccnc(C(F)(F)F)c5)n3)CNCC4)c3ccccc32)c(F)c1', 'IC50', 2),
  ('CCOc1cc(F)c(Cn2nc(-c3nc4c(c(Nc5ccncc5C)n3)CCN(Cc3ccccc3)C4)c3ccccc32)c(F)c1', 'IC50', 57),
  ('CCOc1cc(F)c(Cn2nc(-c3nc4c(c(Nc5ccncc5)n3)CCC4)c3ccccc32)c(F)c1', 'IC50', 180),
  ('CCOc1cc(F)c(Cn2nc(-c3ncc(CCCOC)c(Nc4ccncc4C(N)=O)n3)c3ccccc32)c(F)c1', 'IC50', 3400);
